assay: Highest frequency of moderate liver toxicity observed during clinical trials, expressed as a percentage. [column '% BIOL' in source]; settings: human
Binary call on Hepatotoxicity (moderate) with cut-off 6%: strictly below means True, and equality or higher means False.

Reference set, count: 3
molecule="O=C(Oc1ccccc1C(=O)O)c1ccccc1O [SALSALATE]" group=False
molecule=CCC(=O)O[C@@H](O[P@](=O)(CCCCc1ccccc1)CC(=O)N1C[C@H](C2CCCCC2)C[C@H]1C(=O)O)C(C)C group=True
molecule=NCCC(O)(P(=O)(O)O)P(=O)(O)O group=True

QUERY: # TODO verify Hepatotoxicity (moderate) < 6% strictly for this molecule: CN1CCN(C(=O)OC2c3nccnc3C(=O)N2c2ccc(Cl)cn2)CC1 (stereo not given)
RESULT: True
